VALUE KIND: melting point

In the examples that follow, each entry is paired with its recorded melting point.
{"SAMPLE SMILES": "O=C1C=CC(=O)N1c1ccccc1Sc1ccc(Cl)cc1", "melting point": "54 to 56 °C"}
{"SAMPLE SMILES": "O=Cc1cnn(CC(F)(F)F)c1", "melting point": "56 to 58 °C"}
{"SAMPLE SMILES": "Cn1cc(CC(=O)O)c2ccccc21", "melting point": "126 to 128 °C"}

Now let's try a different one.
Lookup: Indicate the recorded melting point value for this compound: N#CC(C#N)=C1Nc2ccccc2N=C1Cl
Found: 264 to 266 °C
